Biological target: VIM-1 (Pseudomonas aeruginosa (strain ATCC 15692 / DSM 22644 / CIP 104116 / JCM 14847 / LMG 12228 / 1C / PRS 101 / PAO1))
Test: Enzyme activity: determination of IC50, fluorescence assay with CCF2-FA substrate (VIM-1)
Assay type: biochemical
Details: fluorescence assay with CCF2-FA substrate; read-out: VIM-1 IC50
Decision: IC50 beneath 90 nM gives y; IC50 meeting or exceeding 90 nM gives n.

Take the compound NS(=O)(=O)c1cccc(C2CCN(C(=O)C3(c4ccccc4)CC3)CC2)c1-c1nn[nH]n1 and say whether its IC50 is less than 90 nM.
n

Thanks! And NS(=O)(=O)c1cccc(-c2cccs2)c1-c1nn[nH]n1 ?
n

Thanks! And NC1CCC(N2CCC(c3ccc(-c4ccc(C(F)(F)F)c(S(N)(=O)=O)c4-c4nnn[nH]4)cc3)CC2)C1 (stereo not shown) ?
y

Thanks! And NCCCN1CC(c2ccc(-c3ccc(C(F)(F)F)c(S(N)(=O)=O)c3-c3nnn[nH]3)cc2)C1 ?
y

Thanks! And NS(=O)(=O)c1cccc(-c2ccc(C(=O)NCCO)cc2)c1-c1nn[nH]n1 ?
n

Next:
Take the compound NS(=O)(=O)c1nccc(N2CCC(Oc3ncccn3)CC2)c1-c1nnn[nH]1 and say whether its IC50 is less than 90 nM.
n

Thanks! And NCCCCN1CCN(c2ccc(C(F)(F)F)c(S(N)(=O)=O)c2-c2nnn[nH]2)CC1 ?
n

Thanks! And CS(=O)(=O)c1ccc(-c2cccc(S(N)(=O)=O)c2-c2nn[nH]n2)cn1 ?
n

Thanks! And Nc1[nH]nc2ccc(-c3cccc(S(N)(=O)=O)c3-c3nnn[nH]3)cc12 ?
y

Thanks! And Nc1ccc(-c2ccnc(S(N)(=O)=O)c2-c2nn[nH]n2)cn1 ?
n

###

Molecular target: VIM-1 (Pseudomonas aeruginosa (strain ATCC 15692 / DSM 22644 / CIP 104116 / JCM 14847 / LMG 12228 / 1C / PRS 101 / PAO1), UniProt A0A0F7KYQ8)
Assay: Enzyme activity: determination of IC50, fluorescence assay with CCF2-FA substrate (VIM-1)
Type: biochemical
Details: VIM-1 enzyme, CCF2-FA substrate; read-out: VIM-1 IC50
Item-by-item account of IC50
Kindly answer with a numeric value in nM, unit omitted.

Find the recorded IC50 belonging to Nc1nc2cc(F)cc(-c3ccc(C(F)(F)F)c(S(N)(=O)=O)c3-c3nnn[nH]3)c2[nH]1 and report it.
0.508

Thanks! And Nc1nc2cc(-c3ccc(CC4CNC4)c(S(N)(=O)=O)c3-c3nn[nH]n3)ccc2[nH]1 ?
20.1

Thanks! And Nc1ccc(-c2ccc(CC[C@H]3CC[C@@H](N)CC3)c(S(N)(=O)=O)c2-c2nnn[nH]2)cn1 ?
11.1

Thanks! And NCCCNc1nc2c(-c3cccc(S(N)(=O)=O)c3-c3nnn[nH]3)cccc2s1 ?
12.3

Thanks! And NS(=O)(=O)c1c(C(F)(F)F)ccc(-c2cccc(C3CCNC3)c2)c1-c1nnn[nH]1 (centres unmarked) ?
1.46

Thanks! And Nc1ccc(-c2ccc(CC[C@H]3CC[C@H](N)CC3)c(S(N)(=O)=O)c2-c2nnn[nH]2)cn1 ?
10.4

Thanks! And CN(C)C1(C)CN(c2ccc(-c3cccc(S(N)(=O)=O)c3-c3nnn[nH]3)cn2)C1 ?
1350

Thanks! And CN(C)C1CCN(c2ccc(-c3cccc(S(N)(=O)=O)c3-c3nnn[nH]3)cn2)C1 (centres unmarked) ?
830
